# MEASUREMENT TARGET: P-gp (Homo sapiens, UniProt P08183)
# Sequence (P08183 whole entry): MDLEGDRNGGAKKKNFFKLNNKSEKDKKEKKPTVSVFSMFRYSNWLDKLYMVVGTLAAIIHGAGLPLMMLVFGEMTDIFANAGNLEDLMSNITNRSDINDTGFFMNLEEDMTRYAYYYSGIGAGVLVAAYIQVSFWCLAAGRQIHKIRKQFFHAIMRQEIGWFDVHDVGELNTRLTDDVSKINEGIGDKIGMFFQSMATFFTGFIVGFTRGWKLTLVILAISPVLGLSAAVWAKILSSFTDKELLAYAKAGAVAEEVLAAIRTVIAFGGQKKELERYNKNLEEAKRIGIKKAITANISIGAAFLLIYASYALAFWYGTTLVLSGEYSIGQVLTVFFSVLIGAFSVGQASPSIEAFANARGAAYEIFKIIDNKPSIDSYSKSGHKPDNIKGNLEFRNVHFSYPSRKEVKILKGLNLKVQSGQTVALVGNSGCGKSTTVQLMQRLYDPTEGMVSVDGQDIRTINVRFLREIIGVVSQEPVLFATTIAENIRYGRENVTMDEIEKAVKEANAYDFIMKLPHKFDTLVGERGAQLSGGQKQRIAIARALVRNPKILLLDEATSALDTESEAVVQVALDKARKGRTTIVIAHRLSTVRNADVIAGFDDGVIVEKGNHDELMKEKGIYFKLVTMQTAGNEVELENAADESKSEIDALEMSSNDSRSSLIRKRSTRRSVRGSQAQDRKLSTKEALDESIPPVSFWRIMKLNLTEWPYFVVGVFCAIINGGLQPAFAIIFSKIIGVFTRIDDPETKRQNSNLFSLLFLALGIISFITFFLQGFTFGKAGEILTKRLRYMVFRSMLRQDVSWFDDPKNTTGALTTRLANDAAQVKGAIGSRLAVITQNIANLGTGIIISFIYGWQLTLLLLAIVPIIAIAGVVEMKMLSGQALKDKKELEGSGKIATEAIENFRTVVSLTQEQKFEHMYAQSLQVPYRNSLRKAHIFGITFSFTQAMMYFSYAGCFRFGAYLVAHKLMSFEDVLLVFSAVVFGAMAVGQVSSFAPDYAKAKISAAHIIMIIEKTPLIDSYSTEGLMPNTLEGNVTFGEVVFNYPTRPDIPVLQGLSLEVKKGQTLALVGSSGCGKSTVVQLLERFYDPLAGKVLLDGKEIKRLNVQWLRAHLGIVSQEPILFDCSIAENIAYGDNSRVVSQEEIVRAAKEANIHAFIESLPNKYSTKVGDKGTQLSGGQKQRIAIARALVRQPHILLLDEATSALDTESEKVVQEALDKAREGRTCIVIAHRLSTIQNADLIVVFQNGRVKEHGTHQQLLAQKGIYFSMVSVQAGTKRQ
# CONDITIONS USED: Table 2; steady-state affinity model (1:1), reference FC SMALPs-MCF-7
pKd: −log10 of the molar value.
RECORDED METRIC: pKd

C/C=C(/C)C(=O)O[C@H]1[C@@H](OC(C)=O)c2c(ccc3ccc(=O)oc23)OC1(C)C = 5.14

I. COc1ccc(-c2oc3c(CC=C(C)C)c(O)cc(O)c3c(=O)c2O)cc1
II. C/C=C(/C)C(=O)O[C@H]1c2c(ccc3ccc(=O)oc23)OC(C)(C)[C@H]1OC(=O)/C(C)=C\C
III. COc1cccc(O)c1-c1cc(=O)c2c(O)c(OC)c(OC)c(OC)c2o1
Task field, ranking: reported pKd, descending order. Output the labels ranked as instructed.
II, I, III
(II: 6.27, I: 5.59, III: 3.90)

###

# MEASUREMENT TARGET: P-gp (Homo sapiens, UniProt P08183)
# ASSAY PROCEDURE: biochemical
# CONDITIONS USED: Table 2, steady-state affinity model (1:1), reference FC SMALPs-MCF-7
RECORDED METRIC: Kd (µM)

Some entries whose results are on file:
COc1ccc2cc1Oc1ccc(cc1)C[C@H]1c3cc(c(OC)cc3CCN1C)Oc1c(OC)c(OC)cc3c1[C@H](C2)N(C)CC3 = 221
COc1ccc2cc1Oc1ccc(cc1)C[C@H]1c3cc(c(OC)cc3CCN1C)Oc1c(O)c(OC)cc3c1[C@H](C2)N(C)CC3 = 116

A. O=c1cc(-c2ccc(O)c(O)c2)oc2cc(O)cc(O)c12
B. O=C(/C=C/c1ccc(O)cc1)c1ccc(O)cc1O
C. COc1cc(/C=C/C(=O)CC(=O)/C=C/c2ccc(O)c(OC)c2)ccc1O
Order the entries by their reported Kd, beginning at the minimum. Output the labels ranked as instructed.
A, C, B

###

# MEASUREMENT TARGET: UniProtKB P08183
# CONDITIONS USED: analyte binding capacity from steady-state fit
RECORDED METRIC: Rmax (RU)

Some entries whose results are on file:
COc1ccc(-c2oc3c(CC=C(C)C)c(O)cc(O)c3c(=O)c2O)cc1 [Icaritin] = 13.86
O=C(/C=C/c1ccc(O)cc1)c1ccc(O)cc1O [Isoliquiritigenin] = 114

I. COc1cc(/C=C/C(=O)CC(=O)/C=C/c2ccc(O)c(OC)c2)ccc1O [Curcumin]
II. C/C=C(/C)C(=O)O[C@H]1c2c(ccc3ccc(=O)oc23)OC(C)(C)[C@H]1OC(=O)/C(C)=C\C [Praeruptorin B]
Two entries are listed, I and II . Which one carries the higher Rmax? # answer = label of selected item
I

###

# MEASUREMENT TARGET: P-gp (Homo sapiens)
# CONDITIONS USED: analyte binding capacity from steady-state fit
RECORDED METRIC: Rmax (RU)

COc1ccc2cc1Oc1ccc(cc1)C[C@H]1c3cc(c(OC)cc3CCN1C)Oc1c(O)c(OC)cc3c1[C@H](C2)N(C)CC3 = 24.92

P. COc1ccc2cc1Oc1ccc(cc1)C[C@H]1c3cc(c(OC)cc3CCN1C)Oc1c(OC)c(OC)cc3c1[C@H](C2)N(C)CC3
Q. C/C=C(/C)C(=O)O[C@H]1[C@@H](OC(C)=O)c2c(ccc3ccc(=O)oc23)OC1(C)C
R. O=c1cc(-c2ccc(O)c(O)c2)oc2cc(O)cc(O)c12
S. COc1cccc(O)c1-c1cc(=O)c2c(O)c(OC)c(OC)c(OC)c2o1
Order the entries by their reported Rmax, beginning at the minimum. Output the labels ranked as instructed.
Q, P, R, S
